meta.source: patent US9682940B2

# assay.system: Human CB2R (Cannabanoid receptor 2) (Homo sapiens (Human), UniProt P34972)
# Sequence (P34972 whole entry): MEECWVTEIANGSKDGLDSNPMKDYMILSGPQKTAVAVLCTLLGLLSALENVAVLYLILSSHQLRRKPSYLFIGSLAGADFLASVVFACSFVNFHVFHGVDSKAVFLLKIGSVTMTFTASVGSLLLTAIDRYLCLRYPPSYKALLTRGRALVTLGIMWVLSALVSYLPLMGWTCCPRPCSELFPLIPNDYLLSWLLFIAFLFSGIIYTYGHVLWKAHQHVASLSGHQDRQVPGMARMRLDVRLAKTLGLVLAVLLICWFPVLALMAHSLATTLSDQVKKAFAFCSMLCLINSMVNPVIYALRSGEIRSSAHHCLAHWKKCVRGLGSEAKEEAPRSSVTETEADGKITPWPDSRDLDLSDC
# protocol: CB-2 in vitro cAMP (HTRF) assay in HEK-293 cells
# study.conditions: HEK-293 cells stably transfected with human CB2R, 250 nM Forskolin, mean where tested more than once, read-out: CB-2 (HEK_cAMP) EC50
recorded.endpoint: EC50

# compound, assay.system, recorded.endpoint, endpoint.result
measured = [
    ("O=C(O)CCS(=O)(=O)N1CCC(c2nn(C3CC3)c3ccc(C(c4ccc(Cl)cc4)c4ccc(Cl)cc4)cc23)CC1 [Compound 109]", "Human CB2R (Cannabanoid receptor 2) (Homo sapiens (Human), UniProt P34972)", "EC50", "> 10 µM"),
    ("O=C(O)c1ccc(S(=O)(=O)N2CCC(c3nn(CCO)c4ccc(C(c5ccc(Cl)cc5)c5ccc(Cl)cc5)cc34)CC2)cc1", "Human CB2R (Cannabanoid receptor 2) (Homo sapiens (Human), UniProt P34972)", "EC50", "> 10 µM"),
    ("NC(=O)c1ccccc1S(=O)(=O)N1CCC(c2c3cc(C(c4ccc(Cl)cc4)c4ccc(Cl)cc4)ccc3nn2C2CC2)CC1", "Human CB2R (Cannabanoid receptor 2) (Homo sapiens (Human), UniProt P34972)", "EC50", "> 10 µM"),
    ("NC(=O)c1ccc(S(=O)(=O)N2CCC(c3c4cc(C(c5ccc(Cl)cc5)c5ccc(Cl)cc5)ccc4nn3C3CC3)CC2)cc1", "Human CB2R (Cannabanoid receptor 2) (Homo sapiens (Human), UniProt P34972)", "EC50", "> 10 µM"),
    ("O=C(CO)N1CCC(c2nn(C3CC3)c3ccc(C(c4ccc(Cl)cc4)c4ccc(Cl)cc4)cc23)CC1", "Human CB2R (Cannabanoid receptor 2) (Homo sapiens (Human), UniProt P34972)", "EC50", "> 10 µM"),
    ("NC(=O)COc1ccc(N2CCC(c3n[nH]c4ccc(C(c5ccc(Cl)cc5)c5ccc(Cl)cc5)cc34)CC2)cc1 [Compound 217]", "Human CB2R (Cannabanoid receptor 2) (Homo sapiens (Human), UniProt P34972)", "EC50", "4.1 µM"),
    ("O=C(OCc1ccccc1)N1CCC(c2n[nH]c3ccc(C(c4ccc(Cl)cc4)c4ccc(Cl)cc4)cc23)CC1", "Human CB2R (Cannabanoid receptor 2) (Homo sapiens (Human), UniProt P34972)", "EC50", "> 10 µM"),
]

---

# assay.system: Human CB2R (Cannabanoid receptor 2) (Homo sapiens (Human), UniProt P34972)
# protocol: CB-2 in vitro cAMP (HTRF) assay in HEK-293 cells
# Type: cell-based
# study.conditions: HEK-293 cells stably transfected with human CB2R, 250 nM Forskolin, mean where tested more than once, read-out: CB-2 (HEK_cAMP) EC50
Reported EC50 values are given for each entry in this list.
recorded.endpoint: EC50

# molecule, recorded.endpoint, endpoint.result
records = [
    ("NC(=O)c1ccc(S(=O)(=O)N2CCC(c3c4cc(C(c5ccc(Cl)cc5)c5ccc(Cl)cc5)ccc4nn3C3CC3)CC2)cn1", "EC50", "> 10 µM"),
    ("O=S(=O)(N1CCC(c2n[nH]c3ccc(C(c4ccc(Cl)cc4)C4CCCC4)cc23)CC1)C(F)(F)F (stereo not shown)", "EC50", "> 42 µM"),
    ("NC(=O)c1ccccc1S(=O)(=O)N1CCC(c2nn(CCO)c3ccc(C(c4ccc(Cl)cc4)c4ccc(Cl)cc4)cc23)CC1", "EC50", "> 10 µM"),
    ("NS(=O)(=O)N1CCC(c2n[nH]c3ccc(C(c4ccc(Cl)cc4)c4ccc(Cl)cc4)cc23)CC1", "EC50", "> 10 µM"),
]
